Could you please report measured CC50 at 48 h for the items listed next?
# test-method-notes: Cytotoxicity against mouse Hepa-1c1c7 cells after 48 hrs
# Format: cell-based
# experimental-setup: read-out: LD50

// fetch CC50 at 48 h given entry CCCN(CCCC[S+](C)[O-])C(=O)[S+]([O-])CC (stereo not given)
> 200 µM

Determine from records and report CC50 at 48 h for CC[S+]([O-])C(=O)N(CCCC[S+](C)[O-])Cc1cccc2ccccc12 (stereo not given)
> 50 µM

Return CC50 at 48 h for the following compound: CC[S+]([O-])C(=O)N(CCCC[S+](C)[O-])Cc1ccc(F)cc1F (stereo not given)
> 50 µM

// Input: CC[S+]([O-])C(=O)N(CCCC[S+](C)[O-])C1CC1 (stereo not given) . Output its CC50 at 48 h only.
> 200 µM

Give CC50 at 48 h for the following compound: CC[S+]([O-])C(=O)N(C)CCCC[S+](C)[O-] (stereo not given)
> 200 µM

====

# target-or-test-system: NAD(P)H dehydrogenase [quinone] 1 (Mus musculus)
# test-method-notes: Induction of NQO1 activity in mouse hepatoma cells
# Format: cell-based
property: CD (µM)
All answers are understood in µM, so give the number only.

Read the entry CC(=O)[C@H]1CC2CC1C[C@@H]2N=C=S (stereo partly drawn) and write its reported CD.
0.4

Recall and state the measured CD for CS(=O)(=O)[C@@H]1CC2CC1[C@H](N=C=S)C2 (relative stereo) .
1

Give the reported value of CD for this record: O=C(O)CCCCN=C=S
2.2

Dear colleague, please send me the reported CD for COC(=O)[C@H]1CC2CC1C[C@@H]2N=C=S (stereo partly drawn) when you can.
0.7

Supply CD value. Item: CC(=O)[C@@H]1CC2CC1[C@H](N=C=S)C2 (relative stereo)
0.8

Please list CD recorded for the compound CS(=O)(=O)[C@H]1CC2CC1C[C@@H]2N=C=S (stereo partly drawn)
0.7

Provide only the value of recorded CD for N#C[C@H]1CC2CC1C[C@@H]2N=C=S (stereo partly drawn)
0.6

Give a short answer stating reported CD for CC(=O)[C@H]1CC2CC1[C@H](N=C=S)C2 (relative stereo) .
0.3

Give the reported value of CD for this record: COC(=O)CCCCN=C=S
2.8

Provide one value: measured CD of O=[N+]([O-])[C@H]1CC2CC1C[C@@H]2N=C=S (stereo partly drawn)
1.1

Read off the recorded CD for CSC(=O)CCCCN=C=S
2.8

Give reported CD value for CCCCCCN=C=S
15

Kindly indicate its recorded CD. Item: CS(=O)(=O)[C@H]1CC2CC1[C@H](N=C=S)C2 (relative stereo)
0.2

====

Kindly supply the reported CD values for the records listed here.
# target-or-test-system: NAD(P)H dehydrogenase [quinone] 1 (Mus musculus)
# test-method-notes: Induction of NQO1 activity in mouse hepatoma cells
# Type: cell-based
Record the value in µM, omitting the unit from your answer.

Please supply the value of reported CD for the item CC(O)[C@H]1CC2CC1C[C@@H]2N=C=S (stereo partly specified)
0.5

Provide one value: measured CD of CS(=O)(=O)[C@@H]1CCC[C@H](CN=C=S)C1 (relative stereo)
0.4

Give the value of CD reported for the following: N#CCCCCN=C=S
2

Give CD for the following compound: COC(=O)[C@H]1CC2CC1[C@H](N=C=S)C2 (stereo partly specified)
1.6

Read off the recorded CD for O[C@@H]1CC2CC1C[C@@H]2N=C=S (stereo partly specified)
19

Entry CCCCC(=O)CCCCN=C=S needs its CD filled in; supply it.
2

Answer with the recorded CD of CP(C)(=O)CCCCN=C=S only.
0.4

Read the entry CS(=O)(=O)[C@H]1CC[C@@H](N=C=S)CC1 and write its reported CD.
0.4

Give a short answer stating reported CD for CC(=O)CCCCN=C=S .
0.2

Name the recorded CD of the compound listed here: CS(=O)(=O)[C@@H]1CCC[C@@H](CN=C=S)C1 (relative stereo)
0.5

For the compound C[S@+]([O-])CCCCN=C=S , report CD.
0.2

Source listed as ChEMBL document CHEMBL2429766.
